TARGET OR SYSTEM: AC1 (Homo sapiens)
Construct: expressed in transfected cells
Sequence (Q08828 whole entry): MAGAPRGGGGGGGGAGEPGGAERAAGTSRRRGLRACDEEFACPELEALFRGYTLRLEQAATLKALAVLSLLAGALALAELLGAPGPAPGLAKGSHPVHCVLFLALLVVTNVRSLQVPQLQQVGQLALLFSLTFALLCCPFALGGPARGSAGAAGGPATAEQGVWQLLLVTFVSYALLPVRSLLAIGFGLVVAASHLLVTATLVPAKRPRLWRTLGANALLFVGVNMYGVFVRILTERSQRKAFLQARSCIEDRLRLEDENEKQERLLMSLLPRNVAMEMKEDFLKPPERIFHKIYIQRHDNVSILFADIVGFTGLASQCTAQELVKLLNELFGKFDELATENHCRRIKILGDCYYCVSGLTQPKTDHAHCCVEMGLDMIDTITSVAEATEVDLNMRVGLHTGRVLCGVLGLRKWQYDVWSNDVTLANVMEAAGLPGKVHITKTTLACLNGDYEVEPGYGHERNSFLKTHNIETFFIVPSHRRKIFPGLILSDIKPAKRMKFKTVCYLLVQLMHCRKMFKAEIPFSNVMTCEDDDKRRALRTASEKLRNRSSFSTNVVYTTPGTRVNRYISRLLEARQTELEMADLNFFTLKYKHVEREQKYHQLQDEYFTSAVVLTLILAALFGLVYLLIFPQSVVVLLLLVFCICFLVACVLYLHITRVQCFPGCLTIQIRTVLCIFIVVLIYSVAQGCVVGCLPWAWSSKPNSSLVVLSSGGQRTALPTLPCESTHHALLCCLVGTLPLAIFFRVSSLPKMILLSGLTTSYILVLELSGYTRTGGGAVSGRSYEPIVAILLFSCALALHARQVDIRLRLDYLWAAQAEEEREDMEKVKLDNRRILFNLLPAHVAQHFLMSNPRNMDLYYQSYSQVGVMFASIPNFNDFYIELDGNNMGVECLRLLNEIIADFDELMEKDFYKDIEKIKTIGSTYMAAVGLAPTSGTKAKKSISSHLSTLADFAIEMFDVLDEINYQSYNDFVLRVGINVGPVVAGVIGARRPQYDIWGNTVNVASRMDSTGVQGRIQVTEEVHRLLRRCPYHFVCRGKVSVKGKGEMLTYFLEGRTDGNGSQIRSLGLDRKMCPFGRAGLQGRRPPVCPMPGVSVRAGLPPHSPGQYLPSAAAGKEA
TEST PROTOCOL: Inhibition of A23187-mediated (Ca2+-stimulated) cAMP accumulation in HEK cells stably expressing AC1
Type: cell-based
EXPERIMENTAL SETUP: HEK293; 4 μM compound; read-out: AC1 Inhibition Percentage
# inhibition at 4 µM >= 10% gives MET, anything below gives NOT MET

| COMPOUND | CATEGORY LABEL |
| --- | --- |
| Cc1ccc(S(=O)(=O)N2CCCN(C/C=C/c3ccc(Cl)cc3)CC2)cc1 [Compound 7hc] | NOT MET |

Prompt: Please tell me: is the compound CN(C/C=C/c1ccc(Br)cc1)Cc1cccc2ccccc12 [Compound 7fg] at or over 10% in terms of inhibition at 4 µM?
Completion: NOT MET

Prompt: Please tell me: is the compound CN(C/C=C/c1ccc(I)cc1)Cc1cccc2ccccc12 [Compound 7fd] at or over 10% in terms of inhibition at 4 µM?
Completion: MET

Prompt: Please tell me: is the compound COC(=O)CCCN(C/C=C/c1ccccc1)Cc1ccc(F)cc1 [Compound 7ga] at or over 10% in terms of inhibition at 4 µM?
Completion: MET
